Where do these numbers come from? They come from paper PMC10786891.

Kindly supply the reported Kd values for the records listed here.
Target: T1, EsCas13d, nuclease-dead (Eubacterium siraeum, UniProt B0MS50, R295A;H300A;R849A;H854A)
T1 sequence: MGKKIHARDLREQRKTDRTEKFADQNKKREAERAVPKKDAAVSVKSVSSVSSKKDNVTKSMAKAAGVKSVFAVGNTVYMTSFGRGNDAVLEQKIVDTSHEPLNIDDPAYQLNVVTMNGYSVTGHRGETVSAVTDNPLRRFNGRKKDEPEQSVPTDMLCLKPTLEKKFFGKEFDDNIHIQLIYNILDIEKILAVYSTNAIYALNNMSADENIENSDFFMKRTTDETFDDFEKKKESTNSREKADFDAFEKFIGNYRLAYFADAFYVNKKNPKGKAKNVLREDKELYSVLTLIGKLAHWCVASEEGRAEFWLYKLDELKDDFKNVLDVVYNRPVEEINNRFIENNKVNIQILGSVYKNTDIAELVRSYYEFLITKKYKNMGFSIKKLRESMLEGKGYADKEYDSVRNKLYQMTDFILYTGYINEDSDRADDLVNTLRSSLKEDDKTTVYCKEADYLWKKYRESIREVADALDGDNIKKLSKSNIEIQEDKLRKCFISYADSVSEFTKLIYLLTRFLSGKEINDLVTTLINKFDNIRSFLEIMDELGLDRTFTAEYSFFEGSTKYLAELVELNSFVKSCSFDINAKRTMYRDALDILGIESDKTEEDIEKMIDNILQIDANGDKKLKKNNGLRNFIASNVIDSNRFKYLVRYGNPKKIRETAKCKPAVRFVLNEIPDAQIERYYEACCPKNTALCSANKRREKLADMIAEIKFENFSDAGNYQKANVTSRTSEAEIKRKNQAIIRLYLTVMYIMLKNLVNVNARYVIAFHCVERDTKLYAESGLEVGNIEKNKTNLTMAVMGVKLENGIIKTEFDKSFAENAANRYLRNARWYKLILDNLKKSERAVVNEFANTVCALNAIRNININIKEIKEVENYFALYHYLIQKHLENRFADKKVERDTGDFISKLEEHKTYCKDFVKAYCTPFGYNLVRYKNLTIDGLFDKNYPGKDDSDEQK
Experiment: crRNA (strand 1, pre-loaded); Mg2+; 40 mM Tris-HCl pH 7.5, 150 mM NaCl, 6 mM MgCl2, 1 mM DTT, 0.1% Tween-20, 0.2 mg/ml BSA; 25 C; 10 min per concentration, then washed
Conditions: tags: His6-TwinStrep-SUMO cleaved; N-terminal SNAP kept (SNAP-Surface 488); label: 3' end held by stalled T7 RNA polymerase
For clarity, give the value followed by its unit.

[in] Please report the recorded Kd for target 1 insU 3' of 6,insC 3' of 3 (mixed) RNA 1: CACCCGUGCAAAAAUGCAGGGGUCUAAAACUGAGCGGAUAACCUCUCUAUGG RNA 2: GGGAAUGGAUCCACAUCUACGAAUUCGUACCAUAGAGAGGUUAUCCUGCUCCACCGAGAUCGGAAGAGCACACGU .
[out] 0.0105 µM

[in] Please report the recorded Kd for target 3 U20C,U22A (mixed) RNA 1: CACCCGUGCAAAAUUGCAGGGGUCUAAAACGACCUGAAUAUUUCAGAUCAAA RNA 2: GGGAAUGGAUCCACAUCUACGAAUUCGUUAUCGAUCUGAAAUAUUCAGGUCUGCAGAUCGGAAGAGCACACGU .
[out] 0.055 µM

[in] Please report the recorded Kd for target 1 C2A,C4A (mixed) RNA 1: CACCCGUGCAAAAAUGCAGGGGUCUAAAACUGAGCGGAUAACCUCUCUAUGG RNA 2: GGGAAUGGAUCCACAUCUACGAAUUCGUACCAUAGAGAGGUUAUCCGAUAACCGAGAUCGGAAGAGCACACGU .
[out] 0.0103 µM

[in] Please report the recorded Kd for target 2 MT 5'PFS CUU 3'PFS AAU (mixed) RNA 1: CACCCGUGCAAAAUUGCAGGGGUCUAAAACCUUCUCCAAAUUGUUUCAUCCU RNA 2: GGGAAUGGAUCCACAUCUACGAAUUCCUUAGGAUGAAACAAUUUGGAGAAGAAUAGAUCGGAAGAGCACACGU .
[out] 0.0043 µM
